- Assay System: GSK3β (h) (Homo sapiens)
- Sequence (P49841 whole entry): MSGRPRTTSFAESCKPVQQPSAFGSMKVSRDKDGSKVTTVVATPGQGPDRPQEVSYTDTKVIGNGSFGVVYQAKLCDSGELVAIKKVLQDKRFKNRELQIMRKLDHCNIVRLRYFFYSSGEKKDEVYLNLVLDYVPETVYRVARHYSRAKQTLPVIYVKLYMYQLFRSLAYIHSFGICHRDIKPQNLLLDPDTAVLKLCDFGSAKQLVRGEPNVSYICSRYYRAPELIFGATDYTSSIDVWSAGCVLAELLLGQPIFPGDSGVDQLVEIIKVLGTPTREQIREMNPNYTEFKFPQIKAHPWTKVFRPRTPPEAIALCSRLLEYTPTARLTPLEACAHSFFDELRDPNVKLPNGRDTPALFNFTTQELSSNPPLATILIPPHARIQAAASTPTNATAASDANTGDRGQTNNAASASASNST
- Assay Protocol: GSK-3β human kinase inhibition, SPA
- Type: biochemical
- Measurement Conditions: read-out: GSK3b pIC50 (converted)
Quick reference for IC50 among some compounds

# Compound, IC50
data = [
    ("O=C1NCCCOc2cccc(c2)-c2ccnc(n2)Nc2ccc(N3CCOCC3)c(c2)CN2CCC[C@@H]12 [Compound 96]", "2820 nM"),
    ("COc1ccc2cc1CN(C)CCCNC(=O)[C@@H]1CCCN1Cc1cc(Br)cc(c1)Nc1nccc-2n1 [Compound 170]", "> 10000 nM"),
    ("COc1cc2cc(c1OC)CN1CCC[C@H]1C(=O)N(C)CCN(C)c1cc(ccn1)-c1ccnc(n1)N2 [Compound 17]", "851 nM"),
    ("CN1CCCNC(=O)CN2CCN(CC2)Cc2cc(cc(N3CCOCC3)c2)Nc2nccc(n2)-c2ccc(cc2)C1 [Compound 136]", "6760 nM"),
]

---

- Assay System: PLK4 (h) (Homo sapiens, UniProt O00444)
- Sequence (O00444 whole entry): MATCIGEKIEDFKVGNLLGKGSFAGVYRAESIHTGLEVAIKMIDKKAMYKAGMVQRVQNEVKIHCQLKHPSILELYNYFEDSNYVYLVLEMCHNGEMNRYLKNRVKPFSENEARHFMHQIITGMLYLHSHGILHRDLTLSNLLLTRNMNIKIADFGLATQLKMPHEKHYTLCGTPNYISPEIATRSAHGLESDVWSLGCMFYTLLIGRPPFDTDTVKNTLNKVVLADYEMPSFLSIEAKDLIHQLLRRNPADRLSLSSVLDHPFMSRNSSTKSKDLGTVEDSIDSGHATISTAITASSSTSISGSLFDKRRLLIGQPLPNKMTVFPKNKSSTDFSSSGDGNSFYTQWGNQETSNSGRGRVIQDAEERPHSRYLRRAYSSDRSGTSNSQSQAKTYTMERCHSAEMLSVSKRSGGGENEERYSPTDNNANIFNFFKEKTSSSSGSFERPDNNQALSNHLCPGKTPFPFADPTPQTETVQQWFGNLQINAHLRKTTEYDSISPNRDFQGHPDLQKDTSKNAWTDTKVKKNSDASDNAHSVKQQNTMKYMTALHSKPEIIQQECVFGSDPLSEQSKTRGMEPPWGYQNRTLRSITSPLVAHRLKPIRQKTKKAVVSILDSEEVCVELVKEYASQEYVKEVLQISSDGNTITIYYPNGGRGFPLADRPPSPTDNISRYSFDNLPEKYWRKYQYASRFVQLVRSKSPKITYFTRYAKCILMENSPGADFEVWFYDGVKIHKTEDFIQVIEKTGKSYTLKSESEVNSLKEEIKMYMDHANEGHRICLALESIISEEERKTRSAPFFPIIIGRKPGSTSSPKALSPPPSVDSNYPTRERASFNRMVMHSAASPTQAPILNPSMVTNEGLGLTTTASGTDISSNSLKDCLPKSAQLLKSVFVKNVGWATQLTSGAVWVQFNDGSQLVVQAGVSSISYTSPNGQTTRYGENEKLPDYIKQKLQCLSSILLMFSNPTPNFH
- Assay Protocol: PLK-4 human kinase inhibition, scintillation proximity assay (SPA)
- Assay type: biochemical
- Measurement Conditions: read-out: PLK4 pIC50 (converted)
Response field class: enum, chosen by comparing IC50 against lower level (below 600 nM), middle level (600 nM to below 2000 nM), upper level (2000 nM or more)

# Molecule, Assay System, Qualitative Label
measured = [
    ("CN1CCCNC(=O)C2CCN(CC2)Cc2cc(cc(N3CCOCC3)c2)Nc2nccc(n2)-c2ccc(cc2)C1 [Compound 72]", "PLK4 (h) (Homo sapiens, UniProt O00444)", "upper level"),
    ("O=C1NCc2cccc(c2)-c2ccnc(n2)Nc2cccc(c2)CN2C[C@@H](O)C[C@@H]12 [Compound 45]", "PLK4 (h) (Homo sapiens, UniProt O00444)", "lower level"),
    ("C[C@@H]1NCc2cc(ccc2N2CCOCC2)Nc2nccc(n2)-c2cccc(c2)CNC1=O [Compound 182]", "PLK4 (h) (Homo sapiens, UniProt O00444)", "middle level"),
    ("O=C1NCCCOc2ccc(cc2)-c2ccnc(n2)Nc2ccc(N3CCOCC3)c(c2)CN2CCC1CC2 [Compound 92]", "PLK4 (h) (Homo sapiens, UniProt O00444)", "lower level"),
    ("CC(C)Nc1cc2cc(c1)Nc1nccc(n1)-c1ccc(cc1)CN(C)CCCNC(=O)CN1CCN(CC1)C2 [Compound 131]", "PLK4 (h) (Homo sapiens, UniProt O00444)", "middle level"),
    ("CN1CCCNC(=O)[C@H](CO)NCc2cccc(c2)Nc2nccc(n2)-c2ccc(cc2)C1 [Compound 113]", "PLK4 (h) (Homo sapiens, UniProt O00444)", "middle level"),
    ("CN1CCC(NC(=O)c2cc3cc(c2)Nc2nccc(n2)-c2cccc(c2)CNC(=O)[C@@H]2CCCN2C3)CC1 [Compound 38]", "PLK4 (h) (Homo sapiens, UniProt O00444)", "lower level"),
    ("CC1(C)NCc2cc(ccc2N2CCOCC2)Nc2nccc(n2)-c2cccc(c2)OCCCNC1=O [Compound 90]", "PLK4 (h) (Homo sapiens, UniProt O00444)", "middle level"),
    ("COc1cc2cc(c1OC)CN1CCC[C@H]1C(=O)N(C)CCN(C)c1cc(ccn1)-c1ccnc(n1)N2 [Compound 17]", "PLK4 (h) (Homo sapiens, UniProt O00444)", "upper level"),
    ("O=C1NCCCOc2cccc(c2)-c2ccnc(n2)Nc2ccc(N3CCOCC3)c(c2)CN2CCC[C@@H]12 [Compound 96]", "PLK4 (h) (Homo sapiens, UniProt O00444)", "lower level"),
    ("COc1cc2cc(c1OC)CNC(=O)[C@@H]1CCCN1Cc1cccc(c1)-c1ccnc(n1)N2 [Compound 150]", "PLK4 (h) (Homo sapiens, UniProt O00444)", "middle level"),
    ("CN1CCCNC(=O)[C@@H]2CCCN2Cc2cccc(c2)Nc2nccc(n2)-c2ccc(cc2)C1 [Compound 173]", "PLK4 (h) (Homo sapiens, UniProt O00444)", "upper level"),
    ("O=C1CN2CCN(CC2)Cc2ccc(cc2)Nc2nccc(n2)-c2cccc(c2)CN1 [Compound 193]", "PLK4 (h) (Homo sapiens, UniProt O00444)", "upper level"),
    ("COc1ccc2cc1CN(C)CCCNC(=O)C1CCN(CC1)Cc1cccc(c1)Nc1nccc-2n1 [Compound 81]", "PLK4 (h) (Homo sapiens, UniProt O00444)", "upper level"),
    ("CN1CCNC(=O)C2CCN(CC2)Cc2cc(cc(N3CCOCC3)c2)Nc2nccc(n2)-c2ccc(cc2)C1 [Compound 68]", "PLK4 (h) (Homo sapiens, UniProt O00444)", "middle level"),
]

---

Quick reference for IC50 among some compounds
- Assay System: CDK4/CyclinD1 (h) (Homo sapiens, UniProt P11802)
- Sequence (P11802 whole entry): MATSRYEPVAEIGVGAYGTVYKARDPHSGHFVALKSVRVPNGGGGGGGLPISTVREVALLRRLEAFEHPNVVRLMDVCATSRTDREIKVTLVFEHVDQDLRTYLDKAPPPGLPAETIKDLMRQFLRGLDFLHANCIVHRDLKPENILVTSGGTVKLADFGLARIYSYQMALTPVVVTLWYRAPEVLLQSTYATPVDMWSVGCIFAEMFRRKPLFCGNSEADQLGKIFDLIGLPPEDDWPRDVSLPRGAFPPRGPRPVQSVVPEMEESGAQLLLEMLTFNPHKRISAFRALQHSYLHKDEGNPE
- Sequence (P24385 whole entry partner): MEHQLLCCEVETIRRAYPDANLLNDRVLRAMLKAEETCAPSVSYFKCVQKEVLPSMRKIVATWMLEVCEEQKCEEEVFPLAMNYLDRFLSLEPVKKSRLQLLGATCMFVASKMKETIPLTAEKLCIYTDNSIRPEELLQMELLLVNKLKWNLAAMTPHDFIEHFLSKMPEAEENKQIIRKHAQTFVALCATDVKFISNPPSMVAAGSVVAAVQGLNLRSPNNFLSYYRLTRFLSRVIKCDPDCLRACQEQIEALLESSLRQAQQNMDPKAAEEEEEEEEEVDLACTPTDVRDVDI
- Assay Protocol: CDK4/CyclinD1 human kinase inhibition, SPA with GST-pRb substrate
- Assay type: biochemical
- Measurement Conditions: read-out: CDK4 pIC50 (converted)

# Compound Structure, IC50
records = [
    ("COc1cc2cc(c1)Nc1nccc(n1)-c1ccc(OC)c(c1)CN(C)CCNC(=O)[C@H](CO)NC2", "> 10 µM"),
    ("COc1ccc2cc1CN(C)CCNC(=O)[C@@H]1CCCN1Cc1cc(C#N)cc(c1)Nc1nccc-2n1", "> 10 µM"),
    ("CN1CCCNC(=O)C2CCN(CC2)Cc2cc(Br)cc(c2)Nc2nccc(n2)-c2ccc(cc2)C1", "> 10 µM"),
    ("COc1cc2cc(c1)Nc1nccc(n1)-c1ccc(cc1)CN(C)CCNC(=O)C1CCN(CC1)C2", "> 10 µM"),
    ("O=C1NCc2cccc(c2)-c2ccnc(n2)Nc2cccc(c2)CN[C@H]1CO", "1.2 µM"),
    ("O=C(NC1CCOCC1)c1ccc2cc1CN1CCC[C@H]1C(=O)NCc1cccc(c1)-c1ccnc(n1)N2", "5.75 µM"),
    ("COc1ccc2cc1CN(C)CCNC(=O)[C@@H]1CCCN1Cc1cc(cc(NC(C)C)c1)Nc1nccc-2n1", "> 10 µM"),
    ("O=C1NCc2cccc(c2)-c2ccnc(n2)Nc2ccc(N3CCOCC3)c(c2)CN2CCC1CC2", "1.29 µM"),
    ("C[C@@H]1NCc2cc(ccc2N2CCOCC2)Nc2nccc(n2)-c2cccc(c2)OCCCNC1=O", "1.41 µM"),
    ("O=C1NCCCOc2cccc(c2)-c2ccnc(n2)Nc2ccc(N3CCOCC3)c(c2)CN2CCC[C@@H]12", "> 10 µM"),
    ("CC(C)(C)O[C@@H]1C[C@H]2C(=O)NCc3cccc(c3)-c3ccnc(n3)Nc3ccccc3CN2C1", "> 10 µM"),
    ("CN1CCCNC(=O)CN2CCN(CC2)Cc2cc(Br)cc(c2)Nc2nccc(n2)-c2ccc(cc2)C1", "> 10 µM"),
    ("O=C1NCCCOc2cccc(c2)-c2ccnc(n2)Nc2ccc(N3CCOCC3)c(c2)CN[C@H]1CO", "3.63 µM"),
    ("COc1ccc2cc1CN(C)CCNC(=O)[C@@H]1CCCN1Cc1cc(NCCc3ccccc3)cc(c1)Nc1nccc-2n1", "> 10 µM"),
    ("COc1ccc2cc1CN(C)CCCNC(=O)CN1CCN(CC1)Cc1cccc(c1)Nc1nccc-2n1", "> 10 µM"),
]

---

Quick reference for IC50 among some compounds
- Assay System: UniProt:P49841
- Assay Protocol: GSK-3β human kinase inhibition, SPA
- Assay type: biochemical
- Measurement Conditions: read-out: GSK3b pIC50 (converted)

# Compound Structure, IC50
measured = [
    ("COc1cc2cc(c1OC)CN1CCC[C@H]1C(=O)NCc1cccc(c1)-c1ccnc(n1)N2", "195 nM"),
    ("COc1ccc2cc1CN(C)CCCNC(=O)[C@H](CO)NCc1cccc(c1)Nc1nccc-2n1", "> 10000 nM"),
    ("O=C(NC1CCOCC1)c1cc2cc(c1)Nc1nccc(n1)-c1cccc(c1)CNC(=O)[C@@H]1CCCN1C2", "676 nM"),
    ("COc1ccc2cc1CN[C@@H](CO)C(=O)N(C)CCCN(C)c1ccc(cn1)-c1ccnc(n1)N2", "2090 nM"),
]

---

- Tested on: HCT-116
- Assay Protocol: Cellular proliferation assay (Alamar blue), HCT-116
- Format: cell-based
- Measurement Conditions: Homo sapiens, 10% FCS, 72 hours with compound, Alamar blue 4 h
pIC50: −log10 of the molar value.
Quick reference for pIC50 among some compounds

# Compound, Result Modifier, pIC50
data = [
    ("COc1ccc2cc1CN(C)CCNC(=O)[C@@H]1CCCN1Cc1cc(cc(N3CCOCC3)c1)Nc1nccc-2n1 [Compound 152]", "<", 5.00),
    ("COc1cc2cc(c1)Nc1nccc(n1)-c1ccc(cc1)CN(C)CCNC(=O)CN1CCN(CC1)C2 [Compound 132]", "=", 5.23),
    ("CN1CCN(C(=O)c2ccc3cc2CN2CCC[C@H]2C(=O)NCc2cccc(c2)-c2ccnc(n2)N3)CC1 [Compound 25]", "=", 5.43),
    ("COc1ccc2cc1CNCCCNC(=O)C1CCN(CC1)Cc1cc(ccc1N1CCOCC1)Nc1nccc-2n1 [Compound 3]", "<", 5.00),
    ("O=C1NCc2cccc(c2)-c2ccnc(n2)Nc2ccc(N3CCOCC3)c(c2)CN2CCC1CC2 [Compound 95]", "<", 5.00),
    ("COc1ccc2cc1CN1CCN(CC1)CC(=O)N(C)CCCN(C)c1ccc(cn1)-c1ccnc(n1)N2 [Compound 148]", "=", 6.50),
    ("COc1cc2cc(c1OC)CNC(=O)[C@H](CO)NCc1cccc(c1)-c1ccnc(n1)N2 [Compound 8]", "=", 5.10),
    ("COCCNCc1cc2cc(c1)Nc1nccc(n1)-c1cccc(c1)CNC(=O)[C@@H]1CCCN1C2 [Compound 33]", "=", 6.90),
    ("CN1CCN(Cc2cc3cc(c2)Nc2nccc(n2)-c2cccc(c2)CNC(=O)[C@@H]2CCCN2C3)CC1 [Compound 28]", "=", 6.44),
    ("O=C1NCc2cccc(c2)-c2ccnc(n2)Nc2ccc(cc2)CN2C[C@H](O)C[C@@H]12 [Compound 55]", "<", 5.00),
    ("CN1CCC(NC(=O)c2ccc3cc2CN2CCC[C@H]2C(=O)NCc2cccc(c2)-c2ccnc(n2)N3)CC1 [Compound 47]", "=", 5.61),
    ("O=C1NCc2cccc(c2)-c2ccnc(n2)Nc2ccc(N3CCOCC3)c(c2)CN2CCC[C@@H]12 [Compound 1]", "=", 5.42),
    ("CN1CCNC(=O)[C@@H]2CCCN2Cc2cc(cc(N3CCOCC3)c2)Nc2nccc(n2)-c2ccc(cc2)C1 [Compound 154]", "<", 5.00),
    ("COc1cc2cc(c1)Nc1nccc(n1)-c1ccc(cc1)CN(C)CCNC(=O)C1CCN(CC1)C2 [Compound 62]", "=", 5.56),
    ("COc1ccc2cc1CNCCNC(=O)CN1CCN(CC1)Cc1cc(ccc1N1CCOCC1)Nc1nccc-2n1 [Compound 126]", "=", 5.06),
]
